The following compounds are listed with their measured MIC values.
system: Staphylococcus aureus; experiment: Antibacterial activity against Staphylococcus aureus Giorgio by M07-A9 CLSI method; format: functional
Report the figure in mg/L without appending any unit label.

CC(C)CCC[C@@H](C)[C@H]1CC[C@H]2[C@@H]3C(=O)C[C@H]4C[C@H](NCc5ccccn5)CC[C@]4(C)[C@H]3CC[C@]12C: 4
CC(C)CCC[C@@H](C)[C@H]1CC[C@H]2[C@@H]3C(=O)C[C@H]4C[C@H](NCCc5ccccn5)CC[C@]4(C)[C@H]3CC[C@]12C: 8
CC(C)CCC[C@@H](C)[C@H]1CC[C@H]2[C@@H]3C(=O)C[C@H]4C[C@H](NCCCn5ccnc5)CC[C@]4(C)[C@H]3CC[C@]12C: 8
CC(C)CCC[C@@H](C)[C@H]1CC[C@H]2[C@@H]3[C@H](NCCc4ccccn4)C[C@H]4C[C@H](NCCc5ccccn5)CC[C@]4(C)[C@H]3CC[C@]12C: 8
CC(C)CCC[C@@H](C)[C@H]1CC[C@H]2[C@@H]3[C@H](NCc4ccccn4)C[C@H]4C[C@H](NCc5ccccn5)CC[C@]4(C)[C@H]3CC[C@]12C: 2

Kindly consider the entry below.
Answer with the recorded MIC for the compound listed here: CC(C)CCC[C@@H](C)[C@H]1CC[C@H]2[C@@H]3[C@H](NCCc4cnc[nH]4)C[C@H]4C[C@H](NCCc5cnc[nH]5)CC[C@]4(C)[C@H]3CC[C@]12C
8

Values were extracted from ChEMBL document CHEMBL2407054.
